- assay-system: Amyloid-beta precursor protein (Homo sapiens) (UniProt P05067)
- Sequence (P05067 whole entry): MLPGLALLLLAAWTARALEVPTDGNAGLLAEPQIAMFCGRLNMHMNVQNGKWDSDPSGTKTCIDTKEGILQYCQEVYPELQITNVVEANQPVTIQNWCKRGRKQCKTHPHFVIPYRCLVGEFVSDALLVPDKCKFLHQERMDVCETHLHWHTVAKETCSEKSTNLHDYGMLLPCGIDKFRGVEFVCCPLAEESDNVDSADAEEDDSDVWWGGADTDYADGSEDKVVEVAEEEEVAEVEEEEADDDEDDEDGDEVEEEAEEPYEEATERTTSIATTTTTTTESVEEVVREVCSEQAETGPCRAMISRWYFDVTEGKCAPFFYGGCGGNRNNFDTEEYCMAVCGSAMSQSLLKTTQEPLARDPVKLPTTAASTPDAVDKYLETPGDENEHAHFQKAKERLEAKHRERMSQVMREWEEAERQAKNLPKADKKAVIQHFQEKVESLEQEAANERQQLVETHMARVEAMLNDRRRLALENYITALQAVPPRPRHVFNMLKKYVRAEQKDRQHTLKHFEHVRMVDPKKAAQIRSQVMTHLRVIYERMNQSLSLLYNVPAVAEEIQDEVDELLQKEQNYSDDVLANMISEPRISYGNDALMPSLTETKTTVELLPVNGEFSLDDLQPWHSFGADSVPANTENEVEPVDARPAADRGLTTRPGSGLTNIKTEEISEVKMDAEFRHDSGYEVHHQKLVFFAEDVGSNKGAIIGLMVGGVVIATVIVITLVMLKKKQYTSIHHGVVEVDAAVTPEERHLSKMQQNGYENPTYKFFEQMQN
- test-details: Inhibition of amyloid beta (1 to 42) (unknown origin)-induced cytotoxicity in human SH-SY5Y cells assessed as increase in cell viability at 50 uM after 24 hrs by WST8 assay
- Type: cell-based
Activity calls are given as the source filed them. No cut-off for these calls is given here.
Just give me one of these, please: T for active, F for inactive

Past entries and their recorded results:
[[record]]
mol_smiles = "C[C@@H]1O[C@@H](OC(=O)[C@]23CCC(C)(C)C[C@H]2C2=CC[C@@H]4[C@@]5(C)CC[C@H](O[C@@H]6O[C@H](C(=O)O)[C@@H](O)[C@H](O[C@@H]7O[C@@H](C)[C@H](O)[C@@H](O)[C@H]7O)[C@H]6O[C@@H]6O[C@H](CO)[C@@H](O)[C@H](O)[C@H]6O)C(C)(C)[C@@H]5CC[C@@]4(C)[C@]2(C)C[C@@H]3O)[C@H](O)[C@H](O)[C@H]1O"
assigned_label = "T"

[[record]]
mol_smiles = "CC1(C)CC[C@]2(C(=O)O[C@@H]3O[C@H](CO)[C@@H](O)[C@H](O)[C@H]3O)CC[C@]3(C)C(=CC[C@@H]4[C@@]5(C)CC[C@H](O[C@@H]6O[C@H](C(=O)O)[C@@H](O)[C@H](O)[C@H]6O[C@@H]6O[C@H](CO)[C@@H](O)[C@H](O)[C@H]6O[C@@H]6OC[C@@H](O)[C@H](O)[C@H]6O)C(C)(C)[C@@H]5CC[C@]43C)[C@@H]2C1"
assigned_label = "T"

[[record]]
mol_smiles = "C[C@@H]1O[C@@H](OC(=O)[C@]23CCC(C)(C)C[C@H]2C2=CC[C@@H]4[C@@]5(C)CC[C@H](O[C@@H]6O[C@H](C(=O)O)[C@@H](O)[C@H](O)[C@H]6O[C@@H]6O[C@H](CO)[C@@H](O)[C@H](O)[C@H]6O[C@@H]6OC[C@@H](O)[C@H](O)[C@H]6O)C(C)(C)[C@@H]5CC[C@@]4(C)[C@]2(C)C[C@@H]3O)[C@H](O)[C@H](O)[C@H]1O"
assigned_label = "T"

[[record]]
mol_smiles = "CC(=O)OC[C@]12[C@@H](OC(C)=O)CC(C)(C)C[C@H]1C1=CC[C@@H]3[C@@]4(C)CC[C@H](O[C@@H]5O[C@H](C(=O)O)[C@@H](O)[C@H](O)[C@H]5O[C@@H]5O[C@H](CO)[C@@H](O)[C@H](O)[C@H]5O[C@@H]5O[C@@H](C)[C@H](O)[C@@H](O)[C@H]5O)C(C)(C)[C@@H]4CC[C@@]3(C)[C@]1(C)C[C@@H]2OC(C)=O"
assigned_label = "F"


Read the next record carefully.
Lab log entry: C[C@@H]1O[C@@H](O[C@H]2[C@H](O)[C@@H](C(=O)O)O[C@@H](O[C@H]3CC[C@]4(C)[C@H]5CC=C6[C@@H]7CC(C)(C)CC[C@]7(C(=O)O[C@@H]7O[C@H](CO)[C@@H](O)[C@H](O)[C@H]7O)CC[C@@]6(C)[C@]5(C)CC[C@H]4C3(C)C)[C@@H]2O[C@@H]2O[C@H](CO)[C@@H](O)[C@H](O)[C@H]2O)[C@H](O)[C@H](O)[C@H]1O — outcome as called in the assay?
T
